# measuredTarget: Tyrosine-protein kinase ABL2 (Homo sapiens) (UniProt P42684)
# Sequence (P42684 whole entry): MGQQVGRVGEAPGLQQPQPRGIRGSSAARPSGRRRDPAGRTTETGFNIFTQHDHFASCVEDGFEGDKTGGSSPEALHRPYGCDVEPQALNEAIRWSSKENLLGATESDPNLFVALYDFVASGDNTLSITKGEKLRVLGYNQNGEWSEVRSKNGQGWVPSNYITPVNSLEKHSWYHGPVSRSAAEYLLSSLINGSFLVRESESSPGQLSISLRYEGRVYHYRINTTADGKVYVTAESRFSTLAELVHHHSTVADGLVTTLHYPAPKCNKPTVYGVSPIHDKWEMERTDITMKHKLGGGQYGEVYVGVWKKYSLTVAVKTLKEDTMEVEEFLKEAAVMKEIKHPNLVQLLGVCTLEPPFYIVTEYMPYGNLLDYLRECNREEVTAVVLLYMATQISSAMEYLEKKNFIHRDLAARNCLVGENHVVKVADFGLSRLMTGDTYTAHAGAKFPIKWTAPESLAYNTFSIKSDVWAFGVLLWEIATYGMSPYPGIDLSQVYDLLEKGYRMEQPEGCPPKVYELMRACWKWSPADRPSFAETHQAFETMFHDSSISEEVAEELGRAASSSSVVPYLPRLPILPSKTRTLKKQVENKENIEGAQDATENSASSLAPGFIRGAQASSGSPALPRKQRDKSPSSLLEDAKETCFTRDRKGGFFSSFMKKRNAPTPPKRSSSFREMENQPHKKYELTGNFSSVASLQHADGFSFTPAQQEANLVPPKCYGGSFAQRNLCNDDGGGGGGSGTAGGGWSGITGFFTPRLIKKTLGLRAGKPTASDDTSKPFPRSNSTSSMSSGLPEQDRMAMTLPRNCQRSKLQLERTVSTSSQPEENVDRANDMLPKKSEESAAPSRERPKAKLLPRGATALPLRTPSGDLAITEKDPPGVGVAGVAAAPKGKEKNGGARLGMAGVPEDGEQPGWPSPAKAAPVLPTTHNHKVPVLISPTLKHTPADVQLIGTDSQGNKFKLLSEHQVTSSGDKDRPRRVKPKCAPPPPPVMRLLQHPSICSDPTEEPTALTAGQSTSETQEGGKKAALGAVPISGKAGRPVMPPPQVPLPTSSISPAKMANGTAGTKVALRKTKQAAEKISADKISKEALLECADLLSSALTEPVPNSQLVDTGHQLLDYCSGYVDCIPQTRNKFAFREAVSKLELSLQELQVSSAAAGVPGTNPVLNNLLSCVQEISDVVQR
# testSettings: at 1 µM
Please mark rule met if the recorded residual activity is equal to or greater than 90%, and rule not met if it falls below.

stdin: # bool: residual activity of CC(=O)c1ccc(N2CCOCC2)cc1O >= 90%
stdout: rule met

stdin: # bool: residual activity of COc1ccc(S(=O)(=O)N(CCO)c2ccccc2CN(C)C/C=C/c2ccc(Cl)cc2)cc1 >= 90%
stdout: rule met

stdin: # bool: residual activity of Cc1nc2cc3nc(-c4cccs4)cnc3cc2n1C >= 90%
stdout: rule met

stdin: # bool: residual activity of COc1cc2ncnc(N3CCN(C(=O)Nc4ccc(Oc5ccccc5)cc4)CC3)c2cc1OC >= 90%
stdout: rule met

stdin: # bool: residual activity of N#CCCc1ccc2c(c1)-c1[nH]c3ccc([N+](=O)[O-])cc3c1CC(=O)N2 >= 90%
stdout: rule not met

stdin: # bool: residual activity of CC(C)n1cnc2c(NCc3ccccc3)nc(NCCCO)nc21 >= 90%
stdout: rule met

stdin: # bool: residual activity of Cc1cc(Nc2nc(-c3ccccc3)nc3ccccc23)n[nH]1 >= 90%
stdout: rule not met

stdin: # bool: residual activity of C[C@@H](N)[C@H]1CC[C@H](C(=O)Nc2ccncc2)CC1 >= 90%
stdout: rule met

stdin: # bool: residual activity of CO[C@@H]1[C@H](N(C)C(=O)c2ccccc2)C[C@H]2O[C@]1(C)n1c3ccccc3c3c4c(c5c6ccccc6n2c5c31)C(=O)NC4 >= 90%
stdout: rule not met

stdin: # bool: residual activity of Nc1ccc2ncnc(NCCc3ccc(Oc4ccccc4)cc3)c2c1 >= 90%
stdout: rule met

stdin: # bool: residual activity of Cc1nc(-c2ccccc2)c(-c2ccncc2)o1 >= 90%
stdout: rule not met

stdin: # bool: residual activity of CCC(=O)Nc1ccc2ncnc(Nc3cccc(Br)c3)c2c1 >= 90%
stdout: rule met

stdin: # bool: residual activity of O=C1Nc2ccccc2/C1=C1/Nc2ccccc2/C1=N\OCCC(O)CO (configuration not stated) >= 90%
stdout: rule not met

* * *

# measuredTarget: Serine/threonine-protein kinase pim-3 (Homo sapiens) (UniProt Q86V86)
# testSettings: at 10 µM
Please mark 1 if the recorded residual activity is equal to or greater than 90%, and -1 if it falls below.

stdin: # bool: residual activity of Cc1nc2cc3nc(-c4cccs4)cnc3cc2n1C >= 90%
stdout: 1

stdin: # bool: residual activity of COc1ccc(C(=O)Nc2sc3c(c2C(N)=O)CCCC3)cc1OC >= 90%
stdout: 1

stdin: # bool: residual activity of Oc1ccc(Nc2nc(-c3ccc(Cl)cc3)cs2)cc1 >= 90%
stdout: 1

stdin: # bool: residual activity of CN(C)CCCn1cc(C2=C(c3c[nH]c4ccccc34)C(=O)NC2=O)c2ccccc21 >= 90%
stdout: -1

stdin: # bool: residual activity of COc1cc2ncc(-c3ccccc3)nc2cc1OC >= 90%
stdout: 1

stdin: # bool: residual activity of O=C1NC(=O)/C(=C\c2ccc3nccnc3c2)S1 >= 90%
stdout: -1

stdin: # bool: residual activity of Oc1c2ccccc2c2c3c(cccc13)N=N2 >= 90%
stdout: -1

stdin: # bool: residual activity of COc1cc2ncnc(Nc3ccc(NC(=O)c4ccccc4)cc3)c2cc1OC >= 90%
stdout: 1

stdin: # bool: residual activity of CNc1cc2c(Nc3cccc(Br)c3)ncnc2cn1 >= 90%
stdout: -1

stdin: # bool: residual activity of O=c1c2ccccc2[nH]c(=S)n1CCN1CCC(=C(c2ccc(F)cc2)c2ccc(F)cc2)CC1 >= 90%
stdout: 1

stdin: # bool: residual activity of Cc1ccc(S(=O)(=O)/C=C/C#N)cc1 >= 90%
stdout: 1

stdin: # bool: residual activity of N#C/C(=C(\N)Sc1ccc(N)cc1)c1ccccc1C(F)(F)F >= 90%
stdout: -1

stdin: # bool: residual activity of CO[C@H]1C[C@@H]2CC[C@@H](C)[C@@](O)(O2)C(=O)C(=O)N2CCCC[C@H]2C(=O)O[C@H]([C@H](C)C[C@@H]2CC[C@@H](O)[C@H](OC)C2)CC(=O)[C@H](C)/C=C(\C)[C@@H](O)[C@@H](OC)C(=O)[C@H](C)C[C@H](C)/C=C/C=C/C=C/1C >= 90%
stdout: 1

stdin: # bool: residual activity of CC(C)n1cnc2c(NCc3ccccc3)nc(NCCCO)nc21 >= 90%
stdout: 1

* * *

# measuredTarget: Vascular endothelial growth factor receptor 3 (Homo sapiens) (UniProt P35916)
# Sequence (P35916 whole entry): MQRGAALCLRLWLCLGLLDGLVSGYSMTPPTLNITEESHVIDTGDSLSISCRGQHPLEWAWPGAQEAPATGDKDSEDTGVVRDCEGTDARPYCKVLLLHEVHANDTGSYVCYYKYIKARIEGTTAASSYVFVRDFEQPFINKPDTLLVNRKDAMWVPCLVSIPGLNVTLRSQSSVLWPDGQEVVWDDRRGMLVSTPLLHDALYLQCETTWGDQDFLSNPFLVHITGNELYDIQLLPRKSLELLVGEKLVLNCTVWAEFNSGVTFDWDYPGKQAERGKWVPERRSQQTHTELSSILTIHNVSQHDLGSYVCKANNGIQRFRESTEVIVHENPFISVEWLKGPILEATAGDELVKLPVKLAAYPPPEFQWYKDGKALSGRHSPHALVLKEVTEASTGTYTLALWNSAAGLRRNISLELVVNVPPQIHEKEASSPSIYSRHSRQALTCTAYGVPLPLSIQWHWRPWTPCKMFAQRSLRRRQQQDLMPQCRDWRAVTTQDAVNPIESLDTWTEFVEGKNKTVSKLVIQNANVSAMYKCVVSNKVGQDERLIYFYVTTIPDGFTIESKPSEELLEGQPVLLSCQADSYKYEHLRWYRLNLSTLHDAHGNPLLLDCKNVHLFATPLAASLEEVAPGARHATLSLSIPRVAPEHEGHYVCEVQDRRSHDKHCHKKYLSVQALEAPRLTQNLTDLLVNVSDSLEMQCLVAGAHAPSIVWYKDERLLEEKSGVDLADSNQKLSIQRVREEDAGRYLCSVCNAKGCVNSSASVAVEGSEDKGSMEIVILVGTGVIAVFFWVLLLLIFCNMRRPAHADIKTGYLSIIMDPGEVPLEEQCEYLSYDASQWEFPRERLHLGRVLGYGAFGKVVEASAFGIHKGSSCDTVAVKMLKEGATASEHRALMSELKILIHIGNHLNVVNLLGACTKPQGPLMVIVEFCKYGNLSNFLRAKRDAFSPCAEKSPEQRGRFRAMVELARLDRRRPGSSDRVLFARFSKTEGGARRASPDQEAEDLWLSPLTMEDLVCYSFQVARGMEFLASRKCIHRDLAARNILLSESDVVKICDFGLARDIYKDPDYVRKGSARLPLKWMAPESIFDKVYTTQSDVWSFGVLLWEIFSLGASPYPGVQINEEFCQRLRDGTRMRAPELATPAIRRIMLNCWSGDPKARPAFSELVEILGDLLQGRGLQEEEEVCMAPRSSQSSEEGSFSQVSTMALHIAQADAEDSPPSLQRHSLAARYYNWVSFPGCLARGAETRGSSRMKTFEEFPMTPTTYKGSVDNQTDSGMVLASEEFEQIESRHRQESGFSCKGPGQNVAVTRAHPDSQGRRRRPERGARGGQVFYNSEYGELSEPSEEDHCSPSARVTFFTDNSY
# testSettings: at 10 µM
quantityMeasured: residual activity (%)
Reply numerically in %, unit not repeated.

Form field residual activity, entry O=C1NC(=O)/C(=C\c2ccc3nccnc3c2)S1 : 70

Form field residual activity, entry O=C1c2ccccc2-[n+]2ccc3c([nH]c4ccccc43)c21 : 25

Form field residual activity, entry CC(=O)c1ccc(N2CCOCC2)cc1O : 88

Form field residual activity, entry Nc1nc(Nc2ccc(S(N)(=O)=O)cc2)nn1C(=S)Nc1c(F)cccc1F : -1

Form field residual activity, entry Oc1ccc(-c2nc(-c3ccc(F)cc3)c(-c3ccncc3)[nH]2)cc1 : 29

Form field residual activity, entry O=C1Nc2cc(Br)ccc2/C1=C1/Nc2ccccc2/C1=N\O : 1

Form field residual activity, entry CC[n+]1c(/C=C/N(C)c2ccccc2)n(-c2ccccc2)c2ccc(-c3nc4ccccc4s3)cc21 : 52

Form field residual activity, entry O=[N+]([O-])c1ccc(-c2nc(-c3ccc(F)cc3)c(-c3ccncc3)[nH]2)cc1 : 71

Form field residual activity, entry N#C/C(=C(\N)Sc1ccc(N)cc1)c1ccccc1C(F)(F)F : 64

Form field residual activity, entry O=C(Nc1cccc(Nc2cc(Nc3cccc(C(F)(F)F)c3)ncn2)c1)C1CC1 : 61

Form field residual activity, entry O=C1Nc2ccc(Br)cc2/C1=C\c1cc2c([nH]1)CCCC2 : 1

* * *

# measuredTarget: Serine/threonine-protein kinase PLK2 (Homo sapiens) (UniProt Q9NYY3)
# Sequence (Q9NYY3 whole entry, looked up): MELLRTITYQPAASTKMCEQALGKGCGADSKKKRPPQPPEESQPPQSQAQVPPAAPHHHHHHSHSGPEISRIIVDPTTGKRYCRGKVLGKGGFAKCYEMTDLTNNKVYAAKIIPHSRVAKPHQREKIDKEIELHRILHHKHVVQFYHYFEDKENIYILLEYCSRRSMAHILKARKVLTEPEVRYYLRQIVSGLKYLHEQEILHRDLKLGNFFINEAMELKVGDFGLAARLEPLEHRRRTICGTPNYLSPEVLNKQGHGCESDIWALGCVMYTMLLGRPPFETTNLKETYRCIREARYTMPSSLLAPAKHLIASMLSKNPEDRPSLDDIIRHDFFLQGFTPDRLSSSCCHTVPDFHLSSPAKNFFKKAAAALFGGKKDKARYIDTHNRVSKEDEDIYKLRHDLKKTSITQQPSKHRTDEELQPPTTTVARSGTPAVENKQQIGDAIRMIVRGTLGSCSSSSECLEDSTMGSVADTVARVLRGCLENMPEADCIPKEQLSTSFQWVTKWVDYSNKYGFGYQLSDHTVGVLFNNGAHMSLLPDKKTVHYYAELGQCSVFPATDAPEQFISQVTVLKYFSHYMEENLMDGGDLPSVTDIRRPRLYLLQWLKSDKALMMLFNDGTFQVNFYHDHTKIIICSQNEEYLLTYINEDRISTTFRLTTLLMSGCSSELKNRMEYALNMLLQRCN
# testSettings: at 10 µM
# Description: Millipore: Percentage of residual kinase activity of PLK2 at 10uM relative to control. Control inhibitor: Phosphoric acid* at 0.3uM. Buffer: 8 mM MOPS pH 7.0, 0.2 mM EDTA
Please respond with reported residual activity for every item in the list.

Form field residual activity, entry Nc1nc(Nc2ccc(S(N)(=O)=O)cc2)nn1C(=S)Nc1c(F)cccc1F : 26%

Form field residual activity, entry Cc1ccc(NC2=CC(=O)c3sc(C)nc3C2=O)cc1 : 93%

Form field residual activity, entry CC(C)n1cnc2/c(=N/c3cccc(Cl)c3)nc(NCCO)[nH]c21 : 22%

Form field residual activity, entry CC[n+]1c(/C=C/N(C)c2ccccc2)n(-c2ccccc2)c2ccc(-c3nc4ccccc4s3)cc21 : 95%

Form field residual activity, entry O=C1Nc2cc(Br)ccc2/C1=C1/Nc2ccccc2/C1=N\O : 96%

Form field residual activity, entry CC(=O)O/N=C1\C(=C2\C(=O)Nc3cc(Br)ccc32)Nc2ccccc21 : 98%

Form field residual activity, entry O=C1NC(=O)c2cc(Nc3ccc(F)cc3)c(Nc3ccc(F)cc3)cc21 : 96%

Form field residual activity, entry CN(C)c1ccc(/C=C2\C(=O)Nc3ccccc32)cc1 : 98%

Form field residual activity, entry NC(=O)c1ccc2[nH]c(-c3ccc(Oc4ccc(Cl)cc4)cc3)nc2c1 : 93%

Form field residual activity, entry O=[N+]([O-])c1ccc(-c2nc(-c3ccc(F)cc3)c(-c3ccncc3)[nH]2)cc1 : 104%

* * *

Please respond with reported residual activity for every item in the list.
# measuredTarget: Glycogen synthase kinase-3 beta (Homo sapiens) (UniProt P49841)
# Sequence (P49841 whole entry, looked up): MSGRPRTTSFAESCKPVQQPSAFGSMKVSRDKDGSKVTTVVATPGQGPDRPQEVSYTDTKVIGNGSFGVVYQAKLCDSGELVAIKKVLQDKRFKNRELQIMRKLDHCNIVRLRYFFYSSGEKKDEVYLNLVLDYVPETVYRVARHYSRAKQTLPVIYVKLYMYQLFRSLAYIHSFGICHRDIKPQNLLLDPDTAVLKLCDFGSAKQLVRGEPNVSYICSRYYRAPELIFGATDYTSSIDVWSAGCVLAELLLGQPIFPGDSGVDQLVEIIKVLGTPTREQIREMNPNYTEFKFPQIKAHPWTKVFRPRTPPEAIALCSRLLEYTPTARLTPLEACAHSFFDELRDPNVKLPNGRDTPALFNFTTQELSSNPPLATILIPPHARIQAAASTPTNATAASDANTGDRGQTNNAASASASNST
# testSettings: at 1 µM
Reply numerically in %, unit not repeated.

Form field residual activity, entry N#C/C(=C(\N)Sc1ccc(N)cc1)c1ccccc1C(F)(F)F : 99

Form field residual activity, entry Cn1cnc2cc3c(Nc4cccc(Br)c4)ncnc3cc21 : 102

Form field residual activity, entry Cc1ccc(NC2=CC(=O)c3sc(C)nc3C2=O)cc1 : 117

Form field residual activity, entry Oc1c2ccccc2c2c3c(cccc13)N=N2 : 74

Form field residual activity, entry CO[C@H]1[C@@H](OC)C[C@H](C)[C@@H](OC)C2=CC(=O)C=C(NC(=O)/C(C)=C/C=C/[C@H](OC)[C@@H](OC(N)=O)/C(C)=C/[C@@H]1C)C2=O : 92

Form field residual activity, entry COc1cc2ncc(-c3ccccc3)nc2cc1OC : 93

Form field residual activity, entry CC[n+]1c(/C=C/N(C)c2ccccc2)n(-c2ccccc2)c2ccc(-c3nc4ccccc4s3)cc21 : 109

Form field residual activity, entry COc1cc2ncnc(Nc3ccc(O)c(Br)c3)c2cc1OC : 89

* * *

# measuredTarget: Tyrosine-protein kinase receptor UFO (Homo sapiens) (UniProt P30530)
# Sequence (P30530 whole entry): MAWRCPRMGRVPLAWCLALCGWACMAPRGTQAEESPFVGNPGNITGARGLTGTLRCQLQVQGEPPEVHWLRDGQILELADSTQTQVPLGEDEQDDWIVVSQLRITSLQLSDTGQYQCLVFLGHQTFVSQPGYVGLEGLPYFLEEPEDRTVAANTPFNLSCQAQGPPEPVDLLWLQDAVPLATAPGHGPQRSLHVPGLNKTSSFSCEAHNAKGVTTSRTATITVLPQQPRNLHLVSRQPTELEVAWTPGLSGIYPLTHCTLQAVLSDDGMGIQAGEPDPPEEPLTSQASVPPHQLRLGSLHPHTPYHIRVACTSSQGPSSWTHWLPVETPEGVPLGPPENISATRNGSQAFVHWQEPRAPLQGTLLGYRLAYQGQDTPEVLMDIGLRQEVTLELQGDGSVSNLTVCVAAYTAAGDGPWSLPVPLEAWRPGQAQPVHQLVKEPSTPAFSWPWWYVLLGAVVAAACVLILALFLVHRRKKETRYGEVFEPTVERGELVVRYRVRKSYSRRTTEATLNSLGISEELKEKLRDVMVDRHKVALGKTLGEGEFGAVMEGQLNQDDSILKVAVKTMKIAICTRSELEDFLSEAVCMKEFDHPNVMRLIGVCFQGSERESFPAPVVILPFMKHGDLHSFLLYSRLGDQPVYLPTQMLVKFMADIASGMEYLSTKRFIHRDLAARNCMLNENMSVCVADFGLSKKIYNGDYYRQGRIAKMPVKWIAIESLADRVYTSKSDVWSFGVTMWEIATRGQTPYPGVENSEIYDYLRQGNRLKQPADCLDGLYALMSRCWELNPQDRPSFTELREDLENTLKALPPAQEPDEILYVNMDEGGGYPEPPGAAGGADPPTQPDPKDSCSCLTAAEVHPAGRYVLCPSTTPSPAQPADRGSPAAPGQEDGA
# testSettings: at 1 µM
Please mark fulfilled if the recorded residual activity is equal to or greater than 80%, and not fulfilled if it falls below.

stdin: # bool: residual activity of COc1cc2ncnc(N3CCN(C(=O)Nc4ccc(Oc5ccccc5)cc4)CC3)c2cc1OC >= 80%
stdout: not fulfilled

stdin: # bool: residual activity of Cc1cc(Nc2nc(-c3ccccc3)nc3ccccc23)n[nH]1 >= 80%
stdout: not fulfilled

stdin: # bool: residual activity of O=C1NC(=O)c2cc(Nc3ccc(F)cc3)c(Nc3ccc(F)cc3)cc21 >= 80%
stdout: fulfilled

stdin: # bool: residual activity of COc1cc2ncnc(Nc3ccc(NC(=O)c4ccccc4)cc3)c2cc1OC >= 80%
stdout: fulfilled

stdin: # bool: residual activity of Oc1c2ccccc2c2c3c(cccc13)N=N2 >= 80%
stdout: not fulfilled

stdin: # bool: residual activity of O=Nc1c(-c2c(O)[nH]c3ccccc23)[nH]c2ccccc12 >= 80%
stdout: not fulfilled

stdin: # bool: residual activity of CNc1cc2c(Nc3cccc(Br)c3)ncnc2cn1 >= 80%
stdout: not fulfilled

stdin: # bool: residual activity of O=C(O)c1ccc2c3c1cccc3c(=O)n1c3ccccc3nc21 >= 80%
stdout: not fulfilled

stdin: # bool: residual activity of Cc1nc2cc3nc(-c4cccs4)cnc3cc2n1C >= 80%
stdout: fulfilled

stdin: # bool: residual activity of C[C@@H](N)[C@H]1CC[C@H](C(=O)Nc2ccncc2)CC1 >= 80%
stdout: fulfilled

stdin: # bool: residual activity of Nc1cccc(-c2cc3c(Oc4cccc(O)c4)ncnc3[nH]2)c1 >= 80%
stdout: fulfilled

stdin: # bool: residual activity of CCC(=O)Nc1ccc2ncnc(Nc3cccc(Br)c3)c2c1 >= 80%
stdout: fulfilled

stdin: # bool: residual activity of O=c1cc(-c2cccc3c2Sc2ccccc2S3)oc(N2CCOCC2)c1 >= 80%
stdout: fulfilled

stdin: # bool: residual activity of COc1cc2ncnc(Nc3ccc(Oc4ccccc4)cc3)c2cc1OC >= 80%
stdout: not fulfilled

stdin: # bool: residual activity of CO[C@H]1[C@@H](OC)C[C@H](C)[C@@H](OC)C2=CC(=O)C=C(NC(=O)/C(C)=C/C=C/[C@H](OC)[C@@H](OC(N)=O)/C(C)=C/[C@@H]1C)C2=O >= 80%
stdout: fulfilled

stdin: # bool: residual activity of COc1ccc(C(=O)Nc2sc3c(c2C(N)=O)CCCC3)cc1OC >= 80%
stdout: not fulfilled

stdin: # bool: residual activity of CCOc1cc2ncnc(Nc3cccc(Br)c3)c2cc1OCC >= 80%
stdout: not fulfilled

stdin: # bool: residual activity of CC[n+]1c(/C=C/N(C)c2ccccc2)n(-c2ccccc2)c2ccc(-c3nc4ccccc4s3)cc21 >= 80%
stdout: fulfilled

stdin: # bool: residual activity of Cc1ccc(S(=O)(=O)/C=C/C#N)cc1 >= 80%
stdout: fulfilled
